Cited source for all entries: patent US20200061062A1

# Assayed Target: PI3Kβ (Homo sapiens, UniProt P42338)
# Construct: His tag (pFastbac HTa vector) (N); FLAG (N); made in house; host or cells: Sf21 insect cells (baculovirus)
# Sequence (P42338 whole entry): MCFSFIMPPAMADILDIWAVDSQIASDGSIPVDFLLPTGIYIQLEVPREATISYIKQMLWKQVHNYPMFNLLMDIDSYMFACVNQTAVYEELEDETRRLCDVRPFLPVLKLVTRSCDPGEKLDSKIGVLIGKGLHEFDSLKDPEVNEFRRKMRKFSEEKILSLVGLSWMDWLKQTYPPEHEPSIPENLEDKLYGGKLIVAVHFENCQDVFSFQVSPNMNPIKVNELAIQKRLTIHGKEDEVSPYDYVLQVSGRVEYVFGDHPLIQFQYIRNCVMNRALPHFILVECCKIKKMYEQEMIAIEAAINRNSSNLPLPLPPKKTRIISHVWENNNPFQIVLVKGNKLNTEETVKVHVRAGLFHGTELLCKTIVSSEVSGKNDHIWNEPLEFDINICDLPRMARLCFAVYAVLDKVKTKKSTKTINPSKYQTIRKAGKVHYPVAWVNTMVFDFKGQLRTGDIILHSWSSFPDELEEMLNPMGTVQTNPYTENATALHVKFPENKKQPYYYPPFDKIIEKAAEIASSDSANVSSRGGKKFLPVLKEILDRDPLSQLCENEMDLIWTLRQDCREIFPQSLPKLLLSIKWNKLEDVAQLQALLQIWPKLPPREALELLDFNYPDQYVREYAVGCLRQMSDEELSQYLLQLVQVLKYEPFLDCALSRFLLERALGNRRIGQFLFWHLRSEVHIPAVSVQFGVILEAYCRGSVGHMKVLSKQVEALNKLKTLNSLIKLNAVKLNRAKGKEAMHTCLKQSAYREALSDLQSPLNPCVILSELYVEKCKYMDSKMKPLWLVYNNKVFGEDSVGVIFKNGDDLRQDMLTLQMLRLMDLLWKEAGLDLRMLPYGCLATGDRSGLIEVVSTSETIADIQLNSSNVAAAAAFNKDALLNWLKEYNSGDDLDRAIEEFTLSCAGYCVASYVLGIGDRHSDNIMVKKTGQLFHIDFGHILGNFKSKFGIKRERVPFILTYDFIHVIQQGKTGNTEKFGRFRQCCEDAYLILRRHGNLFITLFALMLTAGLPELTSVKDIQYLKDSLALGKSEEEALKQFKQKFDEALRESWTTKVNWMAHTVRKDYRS
# Sequence (P27986 whole entry partner): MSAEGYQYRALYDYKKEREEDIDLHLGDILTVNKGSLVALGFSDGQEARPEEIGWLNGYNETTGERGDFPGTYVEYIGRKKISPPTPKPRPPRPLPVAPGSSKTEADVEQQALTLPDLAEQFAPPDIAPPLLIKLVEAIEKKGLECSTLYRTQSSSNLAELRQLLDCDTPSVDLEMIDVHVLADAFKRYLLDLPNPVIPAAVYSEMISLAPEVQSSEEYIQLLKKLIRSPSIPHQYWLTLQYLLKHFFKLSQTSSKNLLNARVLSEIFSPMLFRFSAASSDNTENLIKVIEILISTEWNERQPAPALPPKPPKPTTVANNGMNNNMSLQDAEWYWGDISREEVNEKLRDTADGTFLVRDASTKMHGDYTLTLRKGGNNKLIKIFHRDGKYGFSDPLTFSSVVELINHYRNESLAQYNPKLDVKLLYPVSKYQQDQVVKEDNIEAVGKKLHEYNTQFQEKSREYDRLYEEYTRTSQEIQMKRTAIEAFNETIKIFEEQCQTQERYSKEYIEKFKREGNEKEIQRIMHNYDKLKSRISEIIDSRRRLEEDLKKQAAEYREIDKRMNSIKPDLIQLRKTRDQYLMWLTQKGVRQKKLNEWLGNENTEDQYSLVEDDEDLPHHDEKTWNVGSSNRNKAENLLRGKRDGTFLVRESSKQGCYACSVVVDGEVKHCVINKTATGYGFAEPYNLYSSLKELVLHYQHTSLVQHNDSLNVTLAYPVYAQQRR
# Test Description: Biochemical assay of PI3K potency and selectivity using 20 μM ATP, Beta
# Assay Setup: Example 2 assay conditions; limit of 100 μM compound; read-out: IC50, β isoform of PI3K (FIG. 1)
pIC50: −log10 of the molar value.
Assay Endpoint: pIC50

Qu. Need pIC50, item `O=c1c2ccccc2nc(CSc2ncnc3[nH]cnc23)n1-c1ccccc1Cl`
Ans. < 4.00

---

# Assayed Target: PI3Kβ (Homo sapiens)
# Construct: His tag (pFastbac HTa vector) (N); FLAG (N); made in house; host or cells: Sf21 insect cells (baculovirus)
# Test Description: Biochemical assay of PI3K potency and selectivity using 20 μM ATP, Beta
# Assay Setup: 20 μM ATP; read-out: Beta IC50
Quick list: IC50 per entry.
The response must be a number in µM with no trailing unit.

1) O=c1c2c(Cl)cccc2nc(CSc2ncnc3[nH]cnc23)n1-c1ccccc1-c1ccccc1: 13

Qu. Need IC50, item `Cc1cccc2nc(Cn3cnc4c(N)ncnc43)n(-c3ccccc3C(C)C)c(=O)c12`
Ans. 3

Qu. Need IC50, item `Cc1cccc2nc(Cn3cnc4c(N)ncnc43)n(-c3ccccc3F)c(=O)c12`
Ans. 14

Qu. Need IC50, item `Cc1cccc2nc(Cn3cnc4c(N)ncnc43)n(-c3ccccc3Cl)c(=O)c12`
Ans. 30
